System: KM20L2 colon
Test: NCI tumour cell line growth inhibition, 48 h
Test Readout: TGI (µM)

Compound: COc1ccc(C2C(=O)C(Cl)N2Nc2nc(C)cc(=O)[nH]2)cc1OC (stereo not given)
Qualifying Sign: >
Endpoint Value: 100
//
Compound: O=C(c1ccccc1)[C@H]1Nc2ccc(Cl)cc2[C@H]2OCCC[C@@H]12
Qualifying Sign: =
Endpoint Value: 39.4
//
Compound: CN(C(=O)c1ccc(Cl)cc1)C(=S)N1CCN(c2ccccn2)CC1
Qualifying Sign: >
Endpoint Value: 100
//
Compound: COc1cc(Cl)cc(N(O)C(C)=O)c1OCc1ccccc1
Qualifying Sign: >
Endpoint Value: 100
//
Compound: c1ccc(C(c2ccccc2)[P+](c2ccccc2)(c2ccccc2)c2ccccc2)cc1
Qualifying Sign: =
Endpoint Value: 11.8

----------
System: SW-620 colon
Test: NCI tumour cell line growth inhibition, 48 h
Test Readout: TGI

Compound: CC(CN1CCN(C)CC1)CN1c2ccccc2Sc2ccc(C(F)(F)F)cc21 (stereo not given)
Endpoint Value: 3.67 µM
//
Compound: Cn1ccc2c(c1=O)C(=O)c1nccc3c1c-2nc1ccccc13
Endpoint Value: 3.17 µM
//
Compound: CC(=O)Nc1ccc(/C=N\N2C(=O)c3ccccc3C2=O)cc1
Endpoint Value: > 100 µM
//
Compound: C/C(=C\c1ccn(-c2ccc(N)c(F)c2)n1)[C@@H]1C[C@@H]2O[C@]2(C)CCC[C@H](C)[C@H](O)[C@@H](C)C(=O)C(C)(C)[C@@H](O)CC(=O)O1
Endpoint Value: > 50 µM
//
Compound: O=c1c2cc(Br)ccc2nc(-c2ccccc2Cl)n1NCC1(O)OCC(O)C(O)C1O (stereo not given)
Endpoint Value: > 100 µM
//
Compound: CS(=O)(=O)c1ccc(-c2cnc(N)c(C(=O)Nc3ccccc3)n2)cc1
Endpoint Value: > 100 µM
//
Compound: Cc1nc(Nc2ccc(F)cc2)c2sc(=S)n(-c3ccc(F)cc3)c2n1
Endpoint Value: 21.4 µM
//
Compound: CC(O)(/C=C/c1ccccc1)P(=O)(O)c1ccccc1 (stereo not given)
Endpoint Value: > 100 µM
//
Compound: O=C1c2cc3c(cc2CC12Cc1cc4c(cc1C2=O)CCC4)CCC3
Endpoint Value: > 100 µM
//
Compound: O=c1[nH]c(=O)n(COCCO)c2ccc(Br)cc12
Endpoint Value: > 100 µM

----------
System: RXF 393 renal
Assay: NCI tumour cell line growth inhibition, 48 h
Below is a list of entries, each paired with its recorded TGI value.

Molecule: COCC1N=C(c2cc(OC)c(OC)c(OC)c2-c2cc3c(cc2C2OCCCO2)OCO3)O[C@H]1c1ccccc1 (stereo not given in full)
TGI: > 100 µM
//
Molecule: CN(c1ccc(NC(=O)Nc2ccc(OC(F)(F)F)cc2)cc1)c1ccnc(Nc2cccc(S(N)(=O)=O)c2)n1
TGI: 6.04 µM
//
Molecule: CC(O)(/C=C/c1ccccc1)P(=O)(O)c1ccccc1 (stereo not given)
TGI: > 100 µM
//
Molecule: CC(C)C1OC2(C)OC(=N)C1(C#N)C(C#N)(C#N)C2C (stereo not given)
TGI: > 100 µM
//
Molecule: CC(=O)O[C@@H]1[C@H]2[C@@H](OC(=O)c3ccccc3)[C@@H](C)C[C@]2(O)[C@H](OC(C)=O)[C@@]2(C)[C@@H]3CC(C)(C)C(=O)[C@]3(OC(C)=O)C[C@@]12C
TGI: > 25 µM
//
Molecule: O=C1CC(c2ccc3c(c2)OCO3)Nc2cc3c(cc21)OCO3 (stereo not given)
TGI: 4.44 µM
//
Molecule: COc1cc(C[C@H]2C(=O)OC[C@@H]2Cc2ccc(OC)c(OC)c2)cc(OC)c1
TGI: > 100 µM
//
Molecule: Cc1ccc(S(=O)(=O)NNC(=O)c2sc(-c3nc(C)c(C(=O)NNS(=O)(=O)c4ccc(C)cc4)s3)nc2C)cc1
TGI: > 100 µM
//
Molecule: CC1CC(c2cccc3c2OCO3)=Nc2ccccc2S1 (stereo not given)
TGI: > 100 µM
//
Molecule: Nc1ncnc2c1ncn2CC(O)C(=O)O (stereo not given)
TGI: > 100 µM
//
Molecule: O=C(c1ccccc1)[C@H]1Nc2ccc(Cl)cc2[C@H]2OCCC[C@@H]12
TGI: 32.4 µM
//
Molecule: NC1=NNC2(C(=O)N1)c1ccccc1-c1ccccc12
TGI: > 10 µM
//
Molecule: Nc1ccc2nc3ccc(N)cc3[n+](-c3ccccc3)c2c1
TGI: > 100 µM
//
Molecule: CC1(C)C2CCC(N)(C2)C1N (stereo not given)
TGI: > 100 µM
//
Molecule: COc1cc(C(O)c2nc3ccccc3s2)cc(OC)c1OC (stereo not given)
TGI: > 100 µM
//
Molecule: COc1ccc(-c2cc(-c3ccc(Nc4ccnc5cc(Cl)ccc45)cc3)nc(N)c2C#N)cc1
TGI: > 100 µM
//
Molecule: O=C(N/N=C/c1ccc([N+](=O)[O-])cc1)c1cccc2nc3ccccc3nc12
TGI: > 80.7 µM
//
Molecule: C=CCN(N=O)C(=O)N(CCCC(NC(C)=O)C(=O)NCc1ccccc1)Cc1ccccc1 (stereo not given)
TGI: > 100 µM
//
Molecule: C/C(=N\NC(=S)NC1CCCC1)c1ccccn1
TGI: 29.1 µM
//
Molecule: O=C(O)C12C3C4C1C1C2C3C1(Br)C41OCCO1 (stereo not given)
TGI: > 100 µM
//
Molecule: C=CCOC1OC(CS(=O)(=O)O)C(O)C(O)C1O (stereo not given)
TGI: > 100 µM
//
Molecule: O=Cc1cn(Cc2cccc(Cl)c2)c2ccccc12
TGI: > 33 µM
//
Molecule: C/C(=C\c1ccn(-c2ccc(N)c(F)c2)n1)[C@@H]1C[C@@H]2O[C@]2(C)CCC[C@H](C)[C@H](O)[C@@H](C)C(=O)C(C)(C)[C@@H](O)CC(=O)O1
TGI: 0.109 µM
//
Molecule: COc1cc(-c2c(C#N)c(N)c(C#N)c3c2COc2ccccc2-3)cc(OC)c1OC
TGI: 34.4 µM
//
Molecule: CN(C)CCCNc1ncnc2nc[nH]c12
TGI: > 100 µM
//
Molecule: COC(=O)[C@@H](O)[C@]1(C(=O)OC)C2O[C@@H](OC)[C@@H]1CCCCCC[C@H]2O
TGI: > 100 µM
//
Molecule: COC(=O)C1=C(C(=O)OC)C2C(C)=CC(C)=CN2C(C#N)=C(SC)S1 (stereo not given)
TGI: 30.6 µM
//
Molecule: CN(C(=O)c1ccc(Cl)cc1)C(=S)N1CCN(c2ccccn2)CC1
TGI: > 100 µM
//
Molecule: COc1ccn2c(C(C)=O)cc(C(=O)c3ccc4c(c3)Sc3ccccc3N4)c2c1
TGI: > 100 µM
//
Molecule: O=C1c2cc3c(cc2CC12Cc1cc4c(cc1C2=O)CCC4)CCC3
TGI: > 100 µM
//
Molecule: CC(C)(O)C1CCC(Nc2ccc3ncc(-c4cccc(C(F)(F)F)c4)n3n2)CC1 (stereo not given)
TGI: 2.81 µM
//
Molecule: COc1ccc(C2C(=O)C(Cl)N2Nc2nc(C)cc(=O)[nH]2)cc1OC (stereo not given)
TGI: > 100 µM
//
Molecule: O=C1OC(CC(=O)c2ccc(Cl)cc2Cl)C(Cl)=C1Cl (stereo not given)
TGI: 36.3 µM
//
Molecule: O=C(O)CCC(NC(=O)c1ccc(Nc2cnc3ccc(C(F)(F)F)cc3n2)cc1)C(=O)O (stereo not given)
TGI: > 100 µM
//
Molecule: CCN(CC)CCC1CCCCN1CC(=O)N1c2ccccc2NC(=O)c2ccccc21 (stereo not given)
TGI: > 100 µM
//
Molecule: COc1ccc(Cc2c(N)[nH]c(=O)n(C)c2=O)cc1
TGI: > 100 µM
//
Molecule: O=C1/C(=C/c2ccc3c(c2)OCO3)CCC1CN1CCOCC1 (stereo not given)
TGI: 24.7 µM
//
Molecule: COc1cc2c3c(n(CCCNCC(OC)OC)c(=O)c2cc1OC)-c1cc2c(cc1C3=O)OCO2
TGI: 21.6 µM
//
Molecule: CCN(CC)c1ccc(C2SCC(=O)N2c2ccc(NC(=O)c3ccc(N4C(=O)CSC4c4ccc(N(CC)CC)cc4)cc3)cc2)cc1 (stereo not given)
TGI: > 100 µM
//
Molecule: COC(=O)c1cc(-c2cc(OC)c(OC)c(OC)c2)[nH]c1N/N=C/c1c(Cl)cccc1Cl
TGI: 31.4 µM
